Measured cell viability, listed per entry for reference.
System: BV-173
test: cell viability (% survival relative to DMSO control, bortezomib = 0%); higher = less cytotoxic
stated-conditions: 1 nM; 72 h
Expressed in %, but write only the number.

Look over these answered cases.
                                   compound  value_unit  reported_measurement
0                   O=C(NNc1ccccc1)c1ccncc1           %                    86
1  N/C(=N\CCCC(N)C(=O)O)N[N+](=O)[O-] (stereo unspecified)           %                  96.5
2  CCOP(=O)(OCC)C(=Cc1cc(C(C)(C)C)c(O)c(C(C)(C)C)c1)P(=O)(OCC)OCC           %                  92.7
3  Nc1nc(Cl)nc2c1ncn2[C@H]1C[C@H](O)[C@@H](CO)O1           %                   128
4             Nc1ccccc1C(=O)C[C@H](N)C(=O)O           %                   108

Memo: CN(C)C(=O)[C@H](O)[C@H](Cc1ccccc1)NC(=O)c1cc2cc(Cl)ccc2[nH]1 , reported cell viability: 88.3

###

Tested on: Mono-Mac-6
test: cell viability (% survival relative to DMSO control); higher = less cytotoxic
stated-conditions: drug1 concentration 5000 nM; drug2 concentration 5 nM; 72 h
Measured cell viability, listed per entry for reference.
Expressed in %, but write only the number.

molecule	cell viability, %
O=C(C1CC1)N1CC[C@@H](C=C2NNC(=O)N2c2ccc(-c3ccc4occc4c3)cc2)C1 + CS(=O)(=O)N1CCN(Cc2cc3nc(-c4cccc5[nH]ncc45)nc(N4CCOCC4)c3s2)CC1 [Pictilisib]	88.3

Let's switch to this molecule now.
Memo: O=C(C1CC1)N1CC[C@@H](C=C2NNC(=O)N2c2ccc(-c3ccc4occc4c3)cc2)C1 + C[C@H](NC(=O)c1sccc1OCc1ccc(Cl)cc1)c1ccccc1 [as1949490] , reported cell viability: 91.3

###

Test system: myeloid leukemia patient primary cells Pat.13
test: area under dose-response curve (viability, 1 nM-10 uM) (fraction (0-1)); higher = more sensitive
stated-conditions: 72 h
Measured area under dose-response curve, listed per entry for reference.
API doc: respond with a numeric literal and nothing else, no unit.

Look over these answered cases.
                                item_smiles                               test_target  reported_measurement
0  C[C@H](NC(=O)c1sccc1OCc1ccc(Cl)cc1)c1ccccc1  myeloid leukemia patient primary cells Pat.13                0.0406
1  COC(=O)[C@]12CCC(C)(C)C[C@H]1[C@H]1C(=O)C=C3[C@@]4(C)C=C(C#N)C(=O)C(C)(C)[C@@H]4CC[C@@]3(C)[C@]1(C)CC2  myeloid leukemia patient primary cells Pat.13                 0.397
2  Nc1nc(Cl)nc2c1ncn2[C@H]1C[C@H](O)[C@@H](CO)O1  myeloid leukemia patient primary cells Pat.13                   0.7
3   COc1cc(/C=C/C(=O)N2CCC=CC2=O)cc(OC)c1OC  myeloid leukemia patient primary cells Pat.13                 0.149

Let's switch to this compound now.
Memo: CN(C)C(=O)n1nnnc1Cc1ccc(-c2ccccc2)cc1 , reported area under dose-response curve: 0.105
